target: β2 adrenergic receptor (Homo sapiens); experiment: Whole-cell cAMP Flashplate assay in CHO cell lines heterologously expressing human β2 adrenergic receptor; assay type: cell-based; design: expressed in transfected cells; conditions: CHO-K1 cells expressing cloned human β2
Sequence (P07550 whole entry): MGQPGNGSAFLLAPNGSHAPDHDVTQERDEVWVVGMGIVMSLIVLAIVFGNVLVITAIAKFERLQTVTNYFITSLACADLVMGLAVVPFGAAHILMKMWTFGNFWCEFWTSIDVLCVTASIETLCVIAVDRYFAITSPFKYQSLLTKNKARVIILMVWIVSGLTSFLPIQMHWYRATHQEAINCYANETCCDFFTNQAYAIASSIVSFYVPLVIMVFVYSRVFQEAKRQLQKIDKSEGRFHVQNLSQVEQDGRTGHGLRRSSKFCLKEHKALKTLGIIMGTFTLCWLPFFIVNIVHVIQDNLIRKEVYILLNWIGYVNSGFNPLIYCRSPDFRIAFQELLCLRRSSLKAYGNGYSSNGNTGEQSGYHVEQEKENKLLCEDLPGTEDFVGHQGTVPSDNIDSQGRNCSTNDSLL
endpoint: EC50

| compound | reportedResult |
| --- | --- |
| COc1cc(NC(=O)CCN2CCC(OC(=O)Nc3ccccc3-c3ccccc3)CC2)c(Cl)cc1CNC[C@H](O)c1ccc(O)c2[nH]c(=O)ccc12 [compound of formula I] | < 10 nM |

---

Molecular target: UniProt:P08172
Sequence (P08172 1-466): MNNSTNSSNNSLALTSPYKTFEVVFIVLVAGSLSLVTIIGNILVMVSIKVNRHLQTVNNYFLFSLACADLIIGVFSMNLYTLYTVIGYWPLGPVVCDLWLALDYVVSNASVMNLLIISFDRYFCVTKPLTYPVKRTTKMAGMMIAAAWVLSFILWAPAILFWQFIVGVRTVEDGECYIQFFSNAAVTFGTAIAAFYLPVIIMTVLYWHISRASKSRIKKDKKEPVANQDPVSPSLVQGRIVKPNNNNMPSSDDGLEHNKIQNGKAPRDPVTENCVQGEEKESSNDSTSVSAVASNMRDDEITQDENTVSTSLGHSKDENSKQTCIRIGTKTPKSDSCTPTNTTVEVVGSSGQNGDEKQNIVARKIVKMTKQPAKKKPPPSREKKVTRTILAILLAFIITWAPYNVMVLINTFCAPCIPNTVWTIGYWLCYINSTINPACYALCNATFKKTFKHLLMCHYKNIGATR
Assay: Blockade of oxotremorine-stimulated [35S]GTPγS binding in CHO-K1 cells expressing the hM2 receptor

| chemSmiles | studySystem | Ki |
| --- | --- | --- |
| COc1cc(NC(=O)CCN2CCC(OC(=O)Nc3ccccc3-c3ccccc3)CC2)c(Cl)cc1CNC[C@H](O)c1ccc(O)c2[nH]c(=O)ccc12 | UniProt:P08172 | < 10 nM |
